Test system: Escherichia coli TOP10
Assay: shrunken log2 fold change of peptide-encoding DNA abundance (4.5 h post-induction vs induction); higher = less antimicrobial activity (less host growth inhibition)
Settings: time post-induction: 4.5 h; library: site-saturation at positions 5, 18, 19, 20
observable: shrunken log2 fold change
Answers are plain numbers.

RRIRTRPPRLPRPRPRPFNPPRP | -1.37

// each listed sequence needs a value for shrunken log2 fold change
1. RRIRLRPPRLPRPRPRPNKAPRP
2. RRIRLRPPRLPRPRPRPGKGPRP
3. RRIRQRPPRLPRPRPRPDGDPRP
4. RRIRNRPPRLPRPRPRPGKTPRP
5. RRIRPRPPRLPRPRPRPETNPRP
6. RRIRQRPPRLPRPRPRPMGRPRP
7. RRIRKRPPRLPRPRPRPDSFPRP
8. RRIRPRPPRLPRPRPRPFISPRP

Reply text:
-0.0163
-0.0192
-0.0112
0.0837
0.192
-0.00151
-0.115
-0.706

* * *

System: Escherichia coli TOP10
Assay: shrunken log2 fold change of peptide-encoding DNA abundance (4.5 h post-induction vs induction); higher = less antimicrobial activity (less host growth inhibition)
Details: time post-induction: 4.5 h; library: site-saturation at positions 5, 18, 19, 20
Give shrunken log2 fold change for every item shown.

RRIRIRPPRLPRPRPRPHFQPRP | -1.78
RRIRRRPPRLPRPRPRPSDKPRP | -0.492
RRIRCRPPRLPRPRPRPYLKPRP | -1.1
RRIRHRPPRLPRPRPRPPCQPRP | 0.0503
RRIRGRPPRLPRPRPRPAWMPRP | 0.554

Please supply shrunken log2 fold change for each of the following items, keeping them in order.
1. RRIRERPPRLPRPRPRPCGMPRP
2. RRIRRRPPRLPRPRPRPLNYPRP

Reply text:
1: -0.398; 2: -0.365

Inquiry: Query (sequence): RRIRKRPPRLPRPRPRPHYQPRP ; field requested: shrunken log2 fold change
Reply text: -0.101

* * *

Tested on: Escherichia coli TOP10
Assay: shrunken log2 fold change of peptide-encoding DNA abundance (4.5 h post-induction vs induction); higher = less antimicrobial activity (less host growth inhibition)
Details: time post-induction: 4.5 h; library: site-saturation at positions 5, 18, 19, 20
Consider the following sequences; for each one, report its shrunken log2 fold change.
Give bare numbers.

Please give shrunken log2 fold change, item by item, for the list that follows.
1. RRIRLRPPRLPRPRPRPKCKPRP
2. RRIRMRPPRLPRPRPRPNRSPRP
3. RRIRFRPPRLPRPRPRPQGAPRP
4. RRIRPRPPRLPRPRPRPYTEPRP
5. RRIRERPPRLPRPRPRPQGPPRP

Reply text:
1. -0.223
2. -0.0367
3. -0.0798
4. -0.349
5. 0.0515

Return reported shrunken log2 fold change values for all items listed beneath this line.
1. RRIRTRPPRLPRPRPRPQGPPRP
2. RRIRFRPPRLPRPRPRPECIPRP
3. RRIRKRPPRLPRPRPRPMADPRP

Reply text:
[0.0175, -0.04, -0.000921]

* * *

System: Escherichia coli TOP10;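 note: peptides expressed intracellularly from a pBAD plasmid library in pooled LB shake-flask culture, induced with 0.3% L-arabinose, DNA abundance read by NGS, three biological replicates, DESeq2 with apeglm shrinkage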
Experiment: shrunken log2 fold change of peptide-encoding DNA abundance (4.5 h post-induction vs induction); higher = less antimicrobial activity (less host growth inhibition)
Conditions: time post-induction: 4.5 h; library: site-saturation at positions 5, 18, 19, 20
Use YES when the recorded shrunken log2 fold change is no lower than -0.2; use NO when it is lower.

RRIRLRPPRLPRPRPRPLMTPRP | NO
RRIRGRPPRLPRPRPRPFINPRP | YES
RRIRMRPPRLPRPRPRPCMVPRP | NO
RRIRGRPPRLPRPRPRPVPQPRP | YES
RRIRMRPPRLPRPRPRPICCPRP | YES

Inquiry: Could you verify whether the entry RRIRYRPPRLPRPRPRPDMCPRP shows shrunken log2 fold change of no less than -0.2?
Reply text: YES

Inquiry: Quick check, shrunken log2 fold change >= -0.2? RRIRIRPPRLPRPRPRPKDMPRP
Reply text: NO

Inquiry: Could you verify whether the entry RRIRARPPRLPRPRPRPMNVPRP shows shrunken log2 fold change of no less than -0.2?
Reply text: YES

Inquiry: Hi, just wondering whether RRIRVRPPRLPRPRPRPMSCPRP shows shrunken log2 fold change of -0.2 or higher.
Reply text: YES

Inquiry: Could you verify whether the entry RRIRKRPPRLPRPRPRPEPIPRP shows shrunken log2 fold change of no less than -0.2?
Reply text: YES

Inquiry: For this sequence, is measured shrunken log2 fold change -0.2 or higher? RRIRQRPPRLPRPRPRPMRYPRP
Reply text: YES
